Biological target: Glycogen synthase kinase-3 alpha (Homo sapiens);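 also: values are mean inhibition of GSK3A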
Details: at 0.1 µM
measurement_label: inhibition (%)

> print(dat)
                                     smiles  reported.value
1  CC(C)c1ccc(Nc2nccc(-c3cnn4ncccc34)n2)cc1            35.6
2  Cc1cc(O)cc(C)c1/C=C/c1cncc(C(=O)N(C)C)c1            6.93
3  NS(=O)(=O)c1ccc(Nc2cc(-c3cccc(O)c3)n[nH]2)cc1            2.99
4  NS(=O)(=O)c1ccc(N/N=C2\C(=O)Nc3ccc(Cl)cc32)cc1            17.3
5  CN1CCN(C(=O)c2ccc(NC(=O)Nc3ccc(N(C)c4ccnc(Nc5ccc(CS(C)(=O)=O)cc5)n4)cc3)cc2)CC1             2.9

---

Below, each entry is listed with its recorded inhibition.
Target: Serine/threonine-protein kinase Nek9 (Homo sapiens) (UniProt Q8TD19);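 also: reported value is the mean percent inhibition of NEK9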
Sequence (whole entry): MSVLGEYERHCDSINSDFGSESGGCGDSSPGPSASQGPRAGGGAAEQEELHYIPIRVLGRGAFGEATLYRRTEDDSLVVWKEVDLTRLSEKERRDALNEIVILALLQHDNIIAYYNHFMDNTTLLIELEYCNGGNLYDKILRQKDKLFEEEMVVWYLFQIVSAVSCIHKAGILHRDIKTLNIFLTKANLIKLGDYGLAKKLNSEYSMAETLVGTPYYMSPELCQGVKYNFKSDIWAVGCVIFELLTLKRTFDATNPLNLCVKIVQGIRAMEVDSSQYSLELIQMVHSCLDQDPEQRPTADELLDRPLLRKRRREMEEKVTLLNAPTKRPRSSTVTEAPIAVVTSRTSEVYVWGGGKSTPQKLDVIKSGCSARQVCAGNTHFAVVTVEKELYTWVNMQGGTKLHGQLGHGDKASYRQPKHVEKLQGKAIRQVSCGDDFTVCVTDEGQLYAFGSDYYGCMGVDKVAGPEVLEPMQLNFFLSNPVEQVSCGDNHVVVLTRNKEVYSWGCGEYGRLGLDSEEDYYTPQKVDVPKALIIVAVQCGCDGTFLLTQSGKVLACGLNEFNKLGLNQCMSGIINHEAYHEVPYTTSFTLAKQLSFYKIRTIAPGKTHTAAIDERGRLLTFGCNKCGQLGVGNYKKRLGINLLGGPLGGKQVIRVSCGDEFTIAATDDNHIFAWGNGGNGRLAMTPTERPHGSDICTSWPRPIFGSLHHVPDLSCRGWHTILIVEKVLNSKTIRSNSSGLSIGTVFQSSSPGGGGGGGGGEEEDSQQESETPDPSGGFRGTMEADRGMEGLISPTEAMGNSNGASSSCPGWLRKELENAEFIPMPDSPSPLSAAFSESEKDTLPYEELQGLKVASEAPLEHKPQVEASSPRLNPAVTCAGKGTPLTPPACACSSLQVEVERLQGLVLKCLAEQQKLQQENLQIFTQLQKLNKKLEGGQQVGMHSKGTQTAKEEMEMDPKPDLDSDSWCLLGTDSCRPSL
Conditions: at 0.1 µM
measurement_label: inhibition (%)

> print(dat)
                                      smiles  reported.value
 1  FC(F)(F)c1ccc(-c2nn3ncccc3c2-c2ccnc(Nc3ccc4c(c3)OCCO4)n2)cc1           -5.79
 2  Nc1nccc(-c2c(-c3ccc(F)cc3)nn3cc(C(F)(F)F)ccc23)n1            0.57
 3         N#Cc1c(NC(=O)c2ccccc2F)sc2c1CCCC2            -2.9
 4  Cc1ccc(NC(=O)CC2CC2)cc1-c1ccc(C(=O)NCC2CC2)cc1            5.37
 5  NC(=O)c1sc(-n2cnc3ccccc32)cc1OCc1ccccc1Br            8.49
 6  Cc1cc(Cl)cc2c1NC(=O)C2=NNc1ccc(S(N)(=O)=O)cc1            3.08
 7  CCS(=O)(=O)c1ccc(OC)c(Nc2nccc(N(C)c3ccc4c(C)n[nH]c4c3)n2)c1            3.29
 8  CN(C)C(=O)O[C@@H]1CN[C@@H](C#Cc2cc3ncnc(Nc4ccc(OCc5cccc(F)c5)c(Cl)c4)c3s2)C1            0.42
 9  NS(=O)(=O)c1ccc(N/N=C2\C(=O)Nc3ccc(Cl)cc32)cc1            7.35
10  Nc1nccc(C#Cc2cncnc2Nc2ccc(OCc3cccc(F)c3)c(Cl)c2)n1            8.89
11  Cc1cc(O)cc(C)c1/C=C/c1cncc(C(=O)N(C)C)c1            11.4
